In this section we review reported Ratio IC50 values for a set of compounds.
Tested on: HEK293
protocol.summary: Selectivity ratio of IC50 for PGD2 receptor in human platelets to IC50 for human EP1 receptor expressed in HEK293 cells by cAMP accumulation assay
Assay type: cell-based
property: Ratio IC50

* CC(C)Oc1ccc(S(=O)(=O)N2CCN(c3ccc(C(=O)Nc4cc(C5CC5)n[nH]4)c(OCC(=O)O)c3)CC2)cc1 | > 20
* CC(C)Oc1ccc(S(=O)(=O)N2CCN(c3ccc(-c4ncco4)c(OCC(=O)O)c3)CC2)cn1 | > 20
* Cc1ccc(N2CCN(S(=O)(=O)c3ccc(OC(C)C)cc3)CC2)cc1OCC(=O)O | > 20
* Cc1nnc(-c2ccc(N3CCN(S(=O)(=O)c4ccc(OC(C)C)cc4)CC3)cc2OCC(=O)O)o1 | > 20
